// data source = PubChem BioAssay (NCI)

system: SNB-19 CNS; assay: NCI tumour cell line growth inhibition, 48 h
Reported TGI by item:

Take a look at these entries with their results.
>>> reported("CC1(c2cccc3ccccc23)OC(=O)c2ccccc21 (stereo not given)")
"> 100 µM"
>>> reported("CCc1c(C#N)c(S[C@@H](C(N)=O)c2ccccc2)nc(N(C)C)c1C#N")
"21.5 µM"
>>> reported("COc1ccc(-n2nnnc2-c2c[nH]c3c(F)cc(F)cc23)cc1")
"> 100 µM"
>>> reported("Cc1ccc(C)n1-n1c(Cc2ccccc2)n[nH]c1=O")
"> 100 µM"
>>> reported("Cc1nc(Nc2ccccc2Cl)sc1C(=O)CC(=O)C(=O)Nc1c(Cl)cccc1Cl")
"> 100 µM"
>>> reported("N#Cc1c(O)c(N=Nc2ccccc2F)c(=O)n2c1[nH]c1ccccc12")
"> 100 µM"

q: State the recorded TGI for this entry: N/C(=C\c1ccc(OCc2ccccc2)c(OCc2ccccc2)c1[N+](=O)[O-])C(=O)O
a: > 100 µM

q: State the recorded TGI for this entry: CC(C)c1cc(CN(C)C)c(O)c(C(C)(C)C)c1
a: 53.4 µM

q: State the recorded TGI for this entry: COC(=O)C1=C(C(=O)ON)C2C=CC1(C(Cc1ccccc1)Nc1ccccc1)O2 (stereo not given)
a: 27.9 µM
